Overview of recorded viability, T/C for various molecules
Tested on: 422866-222-R5-J1-PDC spheroid viability
procedure summary: Anticancer human tumor 422866-222-R5-J1-PDC patient-derived pancreatic adenocarcinoma cell line growth inhibition [CLK]
particulars: second compound 0.316 µM; first compound 0.000949 µM; hits give low values; spheroids with HUVEC and MSC
Use % as the unit, but write only the number.

Query C=CC(=O)Nc1cc(Nc2nccc(-c3cn(C)c4ccccc34)n2)c(OC)cc1N(C)CCN(C)C + CNC(=O)c1ccc(Nc2nc(OC3CCCC3)c3c(-c4ccc5nc(C)oc5c4)c[nH]c3n2)c(OC)c1 yields viability, T/C of 66.3

Query CC(C)CC(NC(=O)C(Cc1ccccc1)NC(=O)c1cnccn1)B(O)O (centres undefined) + CN1CCN(c2cc(C(=O)Nc3cc4cc(-c5cnn(C)c5)ccc4cn3)ccn2)CC1 yields viability, T/C of 112

Query CC(C)CC(NC(=O)C(Cc1ccccc1)NC(=O)c1cnccn1)B(O)O (centres undefined) + CNC(=O)c1ccc(Nc2nc(OC3CCCC3)c3c(-c4ccc5nc(C)oc5c4)c[nH]c3n2)c(OC)c1 yields viability, T/C of 108

Query C=CC(=O)Nc1cc(Nc2nccc(-c3cn(C)c4ccccc34)n2)c(OC)cc1N(C)CCN(C)C + CN1CCN(c2cc(C(=O)Nc3cc4cc(-c5cnn(C)c5)ccc4cn3)ccn2)CC1 yields viability, T/C of 94

---

Test system: 422866-222-R5-J1-PDC spheroid viability
procedure summary: Anticancer human tumor 422866-222-R5-J1-PDC cell line growth inhibition [CLK];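 further: spheroids exposed to agents for seven days before readout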
particulars: second compound 0.0316 µM; first compound 0.03 µM; hits give low values; spheroids with HUVEC and MSC
endpoint label: viability, T/C (%)
Use % as the unit, but write only the number.

These solved cases illustrate the format of a correct answer.
compound: CC(C)CC(NC(=O)C(Cc1ccccc1)NC(=O)c1cnccn1)B(O)O (stereo unspecified) + CNC(=O)c1ccc(Nc2nc(OC3CCCC3)c3c(-c4ccc5nc(C)oc5c4)c[nH]c3n2)c(OC)c1
experimental result: 2.14
//
compound: C=CC(=O)Nc1cc(Nc2nccc(-c3cn(C)c4ccccc34)n2)c(OC)cc1N(C)CCN(C)C + CN1CCN(c2cc(C(=O)Nc3cc4cc(-c5cnn(C)c5)ccc4cn3)ccn2)CC1
experimental result: 96
//
compound: C=CC(=O)Nc1cc(Nc2nccc(-c3cn(C)c4ccccc34)n2)c(OC)cc1N(C)CCN(C)C + CNC(=O)c1ccc(Nc2nc(OC3CCCC3)c3c(-c4ccc5nc(C)oc5c4)c[nH]c3n2)c(OC)c1
experimental result: 79.2
//
compound: CC(C)CC(NC(=O)C(Cc1ccccc1)NC(=O)c1cnccn1)B(O)O (stereo unspecified) + CN1CCN(c2cc(C(=O)Nc3cc4cc(-c5cnn(C)c5)ccc4cn3)ccn2)CC1
experimental result: 1.59
//
compound: NC(=O)C(=Cn1cnc(-c2cc(C(F)(F)F)cc(C(F)(F)F)c2)n1)c1cncnc1 + CNC(=O)c1ccc(Nc2nc(OC3CCCC3)c3c(-c4ccc5nc(C)oc5c4)c[nH]c3n2)c(OC)c1
experimental result: 107

Would you kindly look at the next entry?
Query NC(=O)C(=Cn1cnc(-c2cc(C(F)(F)F)cc(C(F)(F)F)c2)n1)c1cncnc1 + CN1CCN(c2cc(C(=O)Nc3cc4cc(-c5cnn(C)c5)ccc4cn3)ccn2)CC1 yields viability, T/C of 117
